Target: T1, HEB 176-200 (Homo sapiens, UniProt Q99081)
T1 chain: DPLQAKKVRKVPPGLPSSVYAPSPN
Test: ITC
test.readout: pKd
# reply with the number alone; pKd is -log10 of concentration in mol/L

What value of pKd has been reported for the following binder? NHR2 domain of RUNX1/ETO 485-552 (protein) KMERTVAEAKRQAAEDALAVINQQEDSSESCWNCGRKASETCSGCNTARYCGSFCQHKDWEKHHHICG 4.52
